pIC50 overview
- Test system: HFL-1 cells
- Test Name: IL8 assay in the presence of Human Serum Albumin
- Assay type: cell-based
- Experimental Setup: HFL1, S1P (5 μM) induced IL-8, HFL-1 cells, with 2% HSA, read-out: HSA IL8 EC50
// scale note: pIC50 = -log10(conc_M); give the bare number

Consider the following illustrative entries.
INSERT INTO measurements (structure_smiles_string, reported) VALUES
  ('CCOc1nc(C)cc(N/C(=N/C#N)NCc2cc(C)c(-c3cn(C)nc3C(F)(F)F)nn2)c1C', 5.90),
  ('Cc1cc(CNC(=O)Nc2cc(Cl)nc(OCC(F)F)c2)nnc1N1CC(S(C)(=O)=O)C1', 5.00),
  ('CCOc1nc(C(F)(F)F)cc(NC(=O)NCc2cc(C)c(-c3cn(C)nc3C(F)(F)F)nn2)c1C', 7.42),
  ('Cc1cc(CNC(=O)Nc2cc(C#N)nc(OCC(F)F)c2C)nnc1-c1cn(C)nc1C(F)(F)F', 6.94),
  ('Cc1cc(NC(=NC#N)NCc2cc(C)c(-c3cn(C)nc3C(F)(F)F)nn2)c(C)c(OCC(F)F)n1', 5.15),
  ('Cc1cc(CNC(=O)Nc2cc(OCC3CC(F)(F)C3)nc(C(F)(F)F)c2)nnc1-c1cn(C)nc1C(F)(F)F', 5.91);

For the next question, use this molecule.
stdin: Fill in the blank: the reported pIC50 of `Cc1cc(CNC(=O)Nc2cc(Cl)nc(OCC(F)F)c2C)nnc1-c1cn(C)nc1C(F)(F)F` is ____.
stdout: 7.13

Provenance of the data: patent US20190388421A1
